- System: M14 melanoma
- assay_text: NCI-60 one-dose screen, 48 h
- assay_context: 10 µM unless noted
- Method: Growth inhibition of the M14 human tumor cell line is measured as a screen for anti-cancer activity. Cells are grown in 96 well plates and exposed to the test compound for 48 hours. Compounds are tested at a single concentration, which is 10^-5 M for most compounds. The reported endpoint is percent growth (GI% or GIPRCNT), where numbers from 0 - 100% represent growth inhibition, and numbers from -100% - 0 represent cell death. For example, a value of 40 represents 60% growth inhibition. […]
Compounds without any hit were thinned out: in the full panel of roughly 83,000, 20% have a hit. Calls of active or inactive are those of the source. How the source made its calls: active means growth percent below 10; inactive means the rest.
Possible outcomes: 1.0 = active, 0.0 = inactive

{"compound": "Cc1ccc(Oc2c(/C=N/NC(=O)Cn3c(=O)sc4ccccc43)c(C)nn2-c2ccccc2)cc1", "qualitative_label": 0.0}
{"compound": "CCN(CC)c1ccc2cc(NC(=O)OCCNC(=O)CCNC(=O)[C@H](CC(C)C)NC(=O)C(C)(C)NC(=O)C(C)(C)NC(=O)[C@H](CC(C)C)NC(=O)CCNC(=O)C(C)(C)NC(=O)[C@H](CC(C)C)NC(=O)CCNC(=O)[C@@](C)(CC)NC(=O)[C@H](C)NC(=O)CCNC(=O)C(C)(C)NC(=O)[C@H](C)NC(=O)[C@@H]3CCCN3C(=O)[C@@](C)(CC)NC(=O)[C@H](Cc3ccccc3)NC(=O)C3CCCN3C(=O)C(C)(C)NC(=O)C3CCCN3C(=O)C(C)(C)NC(C)=O)c(=O)oc2c1 (stereo not given in full)", "qualitative_label": 1.0}
{"compound": "O=C1CC(c2ccccc2)Cc2nc3ccc(Br)cc3cc21 (stereo not given)", "qualitative_label": 0.0}
{"compound": "COc1ccc2nc3cc(Cl)ccc3c(Nc3ccc(O)c(CN4CCCC4)c3)c2c1", "qualitative_label": 1.0}
{"compound": "Cn1cc(-c2noc(-c3cn(C)c4ncc(F)cc34)n2)c2cc(Cl)ccc21", "qualitative_label": 0.0}
{"compound": "Cc1ccc(-c2cc(-c3ccc(C)cc3)nc(NCCNc3ccnc4cc(Cl)ccc34)n2)cc1", "qualitative_label": 1.0}
{"compound": "O=C(CCN1CCCCC1)c1ccc2ccccc2c1", "qualitative_label": 0.0}
{"compound": "COc1ccc(NC(=O)Nc2ccc(-c3cccnc3)cc2N2CCC(CO)CC2)cc1", "qualitative_label": 0.0}
{"compound": "CC[C@]1(O)CC2CN(CCc3c([nH]c4ccccc34)[C@@](C(=O)OC)(c3cc4c(cc3OC)N(C=O)[C@H]3[C@@](O)(C(=O)OC)[C@H](OC(C)=O)[C@]5(CC)C=CCN6CC[C@]43[C@@H]65)C2)C1 (stereo not given in full)", "qualitative_label": 1.0}
{"compound": "CCCCN(CC)CC(CC)Nc1cc(OC)cc2cccnc12 (stereo not given)", "qualitative_label": 0.0}
{"compound": "Nc1cc(C(=O)O)[nH]c(=S)n1", "qualitative_label": 0.0}
{"compound": "Cc1cnc(N)nc1OCC(C)(C)CNC(=O)c1cccc(-c2ccc(S(=O)(=O)Nc3ccc4c(c3)N(C(=O)C3CC3)CCC4)cc2)c1", "qualitative_label": 0.0}
{"compound": "N#Cc1ccc(-c2ccc(COc3ccc(CC4SC(=O)NC4=O)cc3)cc2)cc1 (stereo not given)", "qualitative_label": 0.0}
{"compound": "O=C(NCCCNC(=O)OCc1ccc2c(Br)cc(Br)c(O)c2n1)OCc1ccc2c(Br)cc(Br)c(O)c2n1", "qualitative_label": 1.0}
{"compound": "COc1ccc(OC)c([N+](=O)[O-])c1C(=O)CNC(C)=O", "qualitative_label": 0.0}
{"compound": "CCCCC(CCCCCC(CCCC)C1NC(C)Cc2cc(OC)c(OC)cc21)C1NC(C)Cc2cc(OC)c(OC)cc21 (stereo not given)", "qualitative_label": 1.0}
{"compound": "COc1cc(Cl)cc(-c2nn(C(=O)NS(=O)(=O)c3ccccc3)cc2-c2ccncc2)c1", "qualitative_label": 0.0}
{"compound": "C[C@H]1[C@H](C)CC[C@]2(C(=O)O)CC[C@]3(C)C(=CC[C@@H]4[C@@]5(C)C/C(=C/c6ccco6)C(=O)C(C)(C)[C@@H]5CC[C@]43C)[C@H]12", "qualitative_label": 1.0}
{"compound": "Cc1cc2c(C(C)C)c(O)c(O)c(C=NCc3ccoc3)c2c(O)c1-c1c(C)cc2c(C(C)C)c(O)c(O)c(C=NCc3ccco3)c2c1O", "qualitative_label": 0.0}
{"compound": "N/C(=N\\c1nc2ccccc2[nH]1)NC(=O)Cc1cccc2ccccc12", "qualitative_label": 0.0}
{"compound": "CC1=CCc2ccccc21", "qualitative_label": 0.0}
{"compound": "NC(=O)CC1C=CCC1 (stereo not given)", "qualitative_label": 0.0}
{"compound": "O=c1[nH]c(CN2CCN(c3cccc(Cl)c3)CC2)nc2cc(Cl)ccc12", "qualitative_label": 0.0}
{"compound": "CCOC(=O)c1nc2c3ccccc3ccn2c1C(=O)OC", "qualitative_label": 0.0}
{"compound": "O=[N+]([O-])c1cc(CCl)ccc1OCCBr", "qualitative_label": 0.0}
{"compound": "c1ccc(-c2nnc(-c3c[nH]c4ncccc34)s2)cc1", "qualitative_label": 0.0}
{"compound": "CC(C)(C)c1cc(C(=O)N2CCC(C(=O)NCCN)CC2)cc(C(C)(C)C)c1", "qualitative_label": 0.0}
{"compound": "O=C(Nc1ccc(CN2CCOCC2)c(C(F)(F)F)c1)c1nc2ccc3[nH]ncc3c2c2c1CCCC2", "qualitative_label": 0.0}
{"compound": "Nc1nc(Nc2ccccc2)c2ncn(Cc3cc4c(cc3Br)OCO4)c2n1", "qualitative_label": 0.0}
{"compound": "CCN1c2ccccc2C(Cl)(c2ccc(N(C)C)cc2)c2ccccc21", "qualitative_label": 0.0}
{"compound": "COc1ccc2nc3c(cc2c1)C(=O)CC(C(F)(F)F)C3 (stereo not given)", "qualitative_label": 1.0}
{"compound": "COc1cc2c(cc1OCCCCCOc1ccc(-n3c(C)nc4ccccc4c3=O)cc1)N=C[C@@H]1CCCN1C2=O", "qualitative_label": 1.0}
{"compound": "N#C/C(C(=O)c1ccccc1)=C1/C(=O)Nc2ccc(F)cc21", "qualitative_label": 0.0}
{"compound": "CC(C)C1=NOC(=O)C1=Cc1cn(-c2ccccc2)nc1-c1cccc([N+](=O)[O-])c1", "qualitative_label": 0.0}
{"compound": "Cc1ccc(S(=O)(=O)NCCCNc2nccc(-c3c(-c4cccc(F)c4)nc4occn34)n2)cc1", "qualitative_label": 0.0}
